Reported values of IC50 for individual entries
- SYSTEM_UNDER_TEST: 26S proteasome non-ATPase regulatory subunit 14 (Homo sapiens)
- Sequence (O00487 whole entry): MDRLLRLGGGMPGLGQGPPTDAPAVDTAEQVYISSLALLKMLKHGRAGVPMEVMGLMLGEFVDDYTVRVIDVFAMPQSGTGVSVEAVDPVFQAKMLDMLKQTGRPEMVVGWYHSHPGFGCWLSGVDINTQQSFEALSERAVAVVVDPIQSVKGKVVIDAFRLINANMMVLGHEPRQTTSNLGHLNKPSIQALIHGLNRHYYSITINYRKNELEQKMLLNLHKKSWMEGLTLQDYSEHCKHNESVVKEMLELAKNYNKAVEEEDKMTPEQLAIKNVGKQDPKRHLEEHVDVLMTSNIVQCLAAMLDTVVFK
- MEASUREMENT_NOTES: inhibition of proteasome subunit RPN11 – biochemical, fluorescence polarization, uHTS hits, confirmation (AID 602368)
- Assay type: functional
Active and inactive are the calls of the source.
VALUE_TYPE: IC50

1) COc1ccc2c3c([nH]c2c1)C(C)NCC3 (centres undefined)
17.9 µM (active)
2) COc1ccccc1NC(=O)CSc1ccc(-c2ccc(-n3cccn3)cc2)nn1
15.7 µM (active)
3) CN1C(=O)/C(=C/C=C2/CCCN2C)N(C)C1=S
8.15 µM (active)
4) O=[N+]([O-])c1ccc(N/N=C\c2cccn2-c2ccccc2)nc1
23.5 µM (active)

* * *

- SYSTEM_UNDER_TEST: Streptokinase A (Streptococcus pyogenes serotype M1, UniProt P10520)
- Sequence (P10520 whole entry): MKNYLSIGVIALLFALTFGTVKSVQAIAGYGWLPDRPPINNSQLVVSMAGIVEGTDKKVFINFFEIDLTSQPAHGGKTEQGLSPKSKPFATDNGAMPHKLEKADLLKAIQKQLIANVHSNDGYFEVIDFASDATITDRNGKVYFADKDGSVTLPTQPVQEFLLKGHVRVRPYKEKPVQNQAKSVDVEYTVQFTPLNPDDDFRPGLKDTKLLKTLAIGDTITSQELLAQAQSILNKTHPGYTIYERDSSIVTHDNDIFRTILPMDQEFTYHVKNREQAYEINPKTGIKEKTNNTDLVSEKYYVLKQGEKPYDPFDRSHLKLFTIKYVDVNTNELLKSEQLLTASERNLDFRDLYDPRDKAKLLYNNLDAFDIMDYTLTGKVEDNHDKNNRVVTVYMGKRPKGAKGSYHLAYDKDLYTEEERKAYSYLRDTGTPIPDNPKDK
- MEASUREMENT_NOTES: S. pyogenes streptokinase expression inhibitors, potency, dose response, plasminogen activation absorbance, OD405 (AID 1914);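 note: secreted streptokinase activity via plasminogen activation per viability signal from cell pellet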
- Format: functional, Streptococcus pyogenes M1 GAS
The source made the active and inactive calls.
VALUE_TYPE: EC50

1) CSc1cccc(-c2nnc(NC(=O)c3cccc(N4C(=O)CCC4=O)c3)o2)c1
> 150 µM (not active)
2) CC(C)(C)c1cc(-c2csc(Nc3ccccc3)[n+]2Cc2ccc(C(=O)O)cc2)cc(C(C)(C)C)c1O
> 150 µM (not active)
3) CCOC(=O)c1ccc(NC(=O)c2[nH]cnc2C(=O)N[C@@H](CCCCNC(=O)OC(C)(C)C)C(=O)OC(C)(C)C)cc1
> 150 µM (not active)
4) CCCn1c(NC(=O)c2ccccc2)nc2ccccc21
> 150 µM (not active)
5) CC(C)=CCOc1ccc([C@@H]2COc3c(ccc4c3C=CC(C)(C)O4)C2)c(O)c1
> 150 µM (not active)
6) Fc1ccc(Cn2cccc2C2=NC(c3ccccc3)CO2)cc1 (stereo not given)
23.8 µM (active)
7) CCOc1ccc(Nc2cc(C)nc(-n3nc(C)cc3C)n2)cc1
> 150 µM (not active)
8) Cc1ccccc1C(=O)Nc1scc(-c2ccc(Br)cc2)c1C(=O)O
> 150 µM (not active)
9) Cc1ccc(OCCSc2nc(NC(C)C)nc(NC(C)C)n2)cc1
13.9 µM (active)
10) COCCCn1c(=O)/c(=C\c2ccccc2OC(C)C)s/c1=C(/C#N)C(=O)Nc1ccc(C(=O)O)cc1
> 150 µM (not active)

* * *

- SYSTEM_UNDER_TEST: UniProtKB P02769
- Sequence (P02769 whole entry): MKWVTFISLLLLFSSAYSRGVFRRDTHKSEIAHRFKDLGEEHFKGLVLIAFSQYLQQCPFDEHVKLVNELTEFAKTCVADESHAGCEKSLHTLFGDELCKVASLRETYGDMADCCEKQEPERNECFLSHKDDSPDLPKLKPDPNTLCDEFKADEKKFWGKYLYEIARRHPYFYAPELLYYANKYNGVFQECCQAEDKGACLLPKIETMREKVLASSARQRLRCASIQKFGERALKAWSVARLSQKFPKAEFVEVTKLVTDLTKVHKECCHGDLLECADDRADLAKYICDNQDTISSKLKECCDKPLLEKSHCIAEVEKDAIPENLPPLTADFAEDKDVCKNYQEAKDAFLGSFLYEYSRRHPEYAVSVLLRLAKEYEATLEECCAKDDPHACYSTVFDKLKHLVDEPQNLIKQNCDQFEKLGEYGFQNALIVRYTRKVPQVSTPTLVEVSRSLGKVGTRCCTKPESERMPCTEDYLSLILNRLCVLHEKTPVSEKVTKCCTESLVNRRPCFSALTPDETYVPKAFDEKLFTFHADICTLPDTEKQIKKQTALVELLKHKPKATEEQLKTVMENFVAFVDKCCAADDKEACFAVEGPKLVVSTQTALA
- MEASUREMENT_NOTES: Counterscreen for inhibitors of T-cell receptor (TCR)-CD3 interaction: Fluorescence-based biochemical high throughput dose response assay to identify inhibitors of T-cell receptor (TCR)-CD3 interaction using a TAMRA-labeled BSA probe.
- Format: functional
The source made the active and inactive calls.
VALUE_TYPE: IC50

1. O=C(NNC(=O)c1ccccc1F)c1cccc(-n2cccc2)c1
> 94 µM (inactive)
2. O=C(CCc1ccc(S(=O)(=O)N2CCOCC2)cc1)N/N=C/c1ccc(O)c(O)c1O
> 94.1 µM (inactive)
3. O=C(Cc1nnc(NC(=O)c2ccccc2)s1)N/N=C\c1ccc(O)c(O)c1
> 94.1 µM (inactive)
4. CC(=O)NNC(=S)NC(=O)c1ccc(C)cc1
> 94 µM (inactive)

* * *

Each entry below carries its recorded AC50.
- SYSTEM_UNDER_TEST: Cytochrome P450 2D6 (Homo sapiens, UniProt P10635);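 note: CYP2D6 member of a cytochrome P450 panel assay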
- Sequence (P10635 whole entry): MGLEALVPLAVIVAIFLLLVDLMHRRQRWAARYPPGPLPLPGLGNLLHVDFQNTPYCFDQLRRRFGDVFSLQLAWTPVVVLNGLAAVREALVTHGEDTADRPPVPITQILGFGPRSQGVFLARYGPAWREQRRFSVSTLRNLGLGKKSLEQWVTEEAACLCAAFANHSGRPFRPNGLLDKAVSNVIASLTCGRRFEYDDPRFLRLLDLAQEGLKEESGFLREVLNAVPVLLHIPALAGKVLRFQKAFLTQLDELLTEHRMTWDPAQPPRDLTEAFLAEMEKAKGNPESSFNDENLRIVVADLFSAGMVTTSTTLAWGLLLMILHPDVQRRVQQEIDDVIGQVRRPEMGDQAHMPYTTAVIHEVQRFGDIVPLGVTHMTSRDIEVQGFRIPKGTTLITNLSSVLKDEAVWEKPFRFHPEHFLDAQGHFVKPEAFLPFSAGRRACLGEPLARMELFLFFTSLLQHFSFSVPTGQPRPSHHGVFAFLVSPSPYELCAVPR
VALUE_TYPE: AC50

1) c1ccc(CCNCc2ccco2)nc1
2.51 µM (inconclusive)
2) Cc1ccc(C(=O)NNC(=O)CSc2nnc(-c3ccncc3)n2-c2ccc(C)cc2)cc1
12.6 µM (inconclusive)
3) Cc1ccc(-c2ccc(=O)n(CC(=O)N3CCN(c4cccc(C)c4)C(C)C3)n2)cc1 (stereo unspecified)
28.2 µM (inconclusive)
4) COc1ccc(NC(=O)OC(C)C)cc1
35.5 µM (inconclusive)
5) CCOc1ccc(N2C(=O)CS/C2=N/NC(=O)COc2ccc3ccccc3c2)cc1
39.8 µM (inconclusive)
6) COC(=O)[C@@]1(Cc2ccccc2)[C@H]2c3cc(C(=O)N4CCCC4)n(Cc4ccc(C(F)(F)F)nc4)c3C[C@H]2CN1C(=O)c1ccccc1
25.1 µM (inconclusive)
7) COC(=O)CCC(=O)Nc1cccc(C(=O)Nc2cccc(Cl)c2)c1
22.4 µM (inconclusive)
8) COc1ccc(OC)c(C2C3=C(O)CCCC3=NC(C)=C2C(=O)Nc2nc3ccccc3s2)c1 (stereo unspecified)
22.4 µM (inconclusive)
9) COc1ccc(Nc2nc(N)nc(CSc3n[nH]c(-c4ccccc4)n3)n2)cc1
3.55 µM (inconclusive)
10) N#Cc1ccc(CN2CCCC3(CCN(C(=O)c4cnccn4)CC3)C2)cc1
10 µM (inconclusive)
11) O=C(NC(=S)N(Cc1ccccc1)Cc1ccccc1)c1ccccc1F
0.2 µM (inconclusive)
12) Cc1cccc([C@H](C)c2cnc[nH]2)c1C [DEXMEDETOMIDINE]
12.6 µM (inconclusive)
13) Cc1cc(SCC(=O)c2ccc(Br)cc2)cc(C)[o+]1
3.16 µM (inconclusive)
14) CNc1oc(-c2ccc(Cl)cc2)nc1C#N
22.4 µM (inconclusive)
15) O=C(O)c1c(Cl)c(Cl)c(Cl)c(Cl)c1C(=O)Nc1ccc2cn[nH]c2c1
3.98 µM (inconclusive)
16) Cc1ccc(C(=N)c2ccccc2Cc2cccc3ccccc23)c2ccccc12
2.51 µM (inconclusive)
17) CN(C)CCN(c1ccccn1)c1ccccn1
3.98 µM (inconclusive)
18) C#CCOC(=O)Nc1ccc(=O)n(Cc2c(Cl)cccc2Cl)c1
20 µM (inconclusive)
19) Cc1ccc2c(c1)N(CC(=O)NC1CCC(C)CC1)C(=O)CO2 (stereo unspecified)
14.1 µM (inconclusive)
20) COc1ccc(C(=O)C(OC(=O)CNC(=O)c2ccco2)c2ccccc2)cc1 (stereo unspecified)
35.5 µM (inconclusive)
21) Cc1ccc(SCc2n[nH]c3c2C(C(C)C)C(C#N)=C(N)O3)cc1 (stereo unspecified)
0.00316 µM (inconclusive)

* * *

- SYSTEM_UNDER_TEST: UniProtKB P51843
- Sequence (P51843 whole entry): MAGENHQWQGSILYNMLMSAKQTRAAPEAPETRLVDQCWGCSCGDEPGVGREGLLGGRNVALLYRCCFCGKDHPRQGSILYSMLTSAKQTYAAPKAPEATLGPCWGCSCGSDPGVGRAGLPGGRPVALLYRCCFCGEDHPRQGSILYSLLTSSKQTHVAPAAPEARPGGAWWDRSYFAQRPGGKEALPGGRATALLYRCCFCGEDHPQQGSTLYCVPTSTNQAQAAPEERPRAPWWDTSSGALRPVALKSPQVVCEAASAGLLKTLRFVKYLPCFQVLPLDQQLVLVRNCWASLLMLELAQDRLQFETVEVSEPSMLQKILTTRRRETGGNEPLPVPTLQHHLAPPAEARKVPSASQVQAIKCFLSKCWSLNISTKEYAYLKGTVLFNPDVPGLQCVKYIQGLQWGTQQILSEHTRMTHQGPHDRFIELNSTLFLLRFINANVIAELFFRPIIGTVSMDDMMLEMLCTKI
- Assay type: functional, cell-based
Calls of active or inactive are those of the source.
Outcome codes: Y (active), N (inactive)

1. CC(C)c1nnc(NC(=O)c2ccc3c(c2)OCO3)s1
Y
2. O=C(/C=C/Nc1ccc(F)cc1F)c1ccco1
N
3. COc1ccc(-c2cc(=O)c3cc(OC)ccc3o2)cc1
N
4. COCCn1c(C)cc(C(=O)CN2C(=O)NC3(CCCCCC3)C2=O)c1C
N

* * *

- SYSTEM_UNDER_TEST: Zinc finger protein mex-5 (Caenorhabditis elegans, UniProt Q9XUB2)
- Sequence (Q9XUB2 whole entry): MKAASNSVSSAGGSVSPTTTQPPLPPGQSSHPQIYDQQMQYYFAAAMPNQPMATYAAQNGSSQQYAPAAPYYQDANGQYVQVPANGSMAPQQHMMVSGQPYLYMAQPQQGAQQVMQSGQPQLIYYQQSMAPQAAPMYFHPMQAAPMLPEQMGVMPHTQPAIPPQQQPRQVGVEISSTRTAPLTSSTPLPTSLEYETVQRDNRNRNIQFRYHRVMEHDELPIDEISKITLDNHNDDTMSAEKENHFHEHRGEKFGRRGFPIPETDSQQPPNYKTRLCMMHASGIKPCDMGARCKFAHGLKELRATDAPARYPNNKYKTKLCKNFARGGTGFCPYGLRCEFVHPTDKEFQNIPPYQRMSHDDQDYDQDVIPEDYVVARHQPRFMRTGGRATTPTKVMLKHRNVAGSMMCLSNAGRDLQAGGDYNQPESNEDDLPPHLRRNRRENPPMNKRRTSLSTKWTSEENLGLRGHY
- MEASUREMENT_NOTES: MEX-5/TCR-2 RNA interaction inhibitors, dose response, biochemical, C. elegans, fluorescence polarization (AID 1960)
The source made the active and inactive calls.
VALUE_TYPE: EC50

1. O=C(O)c1ccc2c(c1)C(=O)/C(=C\c1ccco1)C2=O
32.1 µM (active)
2. O=C(c1cccs1)c1ccc(-c2cccs2)s1
> 300 µM (not active)
3. CCOc1cc(C2C(C#N)=C(N)OC3=C2C(=O)CC(C)(C)C3)cc([N+](=O)[O-])c1O (stereo not drawn)
> 300 µM (not active)

// provenance: ChEMBL document CHEMBL1201862
